- studySystem: Gal6S(b1-4)GlcNAc6S
- experimentNotes: glycan array binding signal (z-score within array); higher = stronger binding
- assayContext: glycan notation: IUPAC condensed, linker removed
Shown is part of a subset that was picked to be rich in the strongest signals.
measuredMetric: glycan array binding signal (z-score)
Kindly provide the number alone.

- binder: "Epa13 (Candida glabrata) (protein) MGSSHHHHHHSSGLVPRGSHMASDSSENGYAHGCSPSIRAKLKPGLSMEIYSYALRPTDDHCWDSAYLDPMFPRTGYLTHKLLGKAEGIIGPLNFLAKNPACIPAVSTLPLAFHFPKPFTITNFTMLLYGYLSPKKTGKYTFKLLADDLLLMNFGADNAFDCCSHDATKDNIGEYVAYSVWPGVNKNVTVYLESGIYYPLRLFFNNRDAIAQLDFAYYFNDSPIRQTDFSGMFFSIPDSVKCPANI"
  glycan array binding signal (z-score): 2.69

Okay, now this binder:
*Q* Reported glycan array binding signal (z-score), binder HBHA-Rv (Mycobacterium tuberculosum), P0A5P6 (protein) MAENSNIDDIKAPLLAALGAADLALATVNELITNLRERAEETRTDTRSRVEESRARLTKLQEDLPEQLTELREKFTAEELRKAAEGYLEAATSRYNELVERGEAALERLRSQQSFEEVSARAEGYVDQAVELTQEALGTVASQTRAVGERAAKLVGIELPKKAAPAKKAAPAKKAAPAKKAAAKKAPAKKAAAKKVTQK : ____
*A* 0.203
